We begin with a simple list: items and their reported MTD at 336 h.
- assay: Compatibility in the case of the sheep
- setup conditions: in vivo, single dose into the rumen, 14 days observation, read-out: MTD (maximum tolerated dose)
Only the number, expressed in mg/kg, is required.

Inquiry: Item under review: COc1cc2nc(C(C)C)sc2cc1N=C=S [No. 3, reference compound] . Reported MTD at 336 h?
Reply text: 200

---

- assay: Compatibility in the case of the sheep
- setup conditions: in vivo, liver flukes, read-out: therapeutic index (maximum tolerated dose/minimum effective dose)
experimental readout: selectivity ratio

Inquiry: Fill in: selectivity ratio of COc1cc2nc(C(C)(C)C)sc2cc1N=C=S is ___
Reply text: ~13
